Measured target: IDO1 (Homo sapiens)
Sequence (P14902 whole entry): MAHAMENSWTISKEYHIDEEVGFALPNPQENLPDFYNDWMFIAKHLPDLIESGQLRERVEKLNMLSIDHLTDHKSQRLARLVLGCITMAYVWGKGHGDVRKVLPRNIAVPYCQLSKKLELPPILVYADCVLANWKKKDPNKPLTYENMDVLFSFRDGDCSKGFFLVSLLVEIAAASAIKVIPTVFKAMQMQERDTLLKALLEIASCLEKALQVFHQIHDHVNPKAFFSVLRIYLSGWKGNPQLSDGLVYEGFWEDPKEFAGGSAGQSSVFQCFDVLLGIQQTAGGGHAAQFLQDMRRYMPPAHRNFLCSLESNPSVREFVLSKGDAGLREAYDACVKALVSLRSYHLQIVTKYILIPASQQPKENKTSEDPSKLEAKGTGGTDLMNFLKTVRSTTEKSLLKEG
Measurement description: IDO1 Cellular Assay in HeLa Cells Stimulated with IFNγ
Type: cell-based
Condition context: IFNγ 100 ng/mL, 300 uM L-tryptophan, about 48 hours incubation, fluorescence readout, read-out: IDO1 HeLa Cell Assay, IC50
Recorded endpoint: IC50 (nM)
Note: unit nM is implicit; provide only the numeric part.

Worked cases, answers included:
[[record]]
smiles_code = "COC(=O)c1cccc2nc(C3(c4ccc(NC(=O)c5cccc(C#N)c5)nc4)CCC3)[nH]c12"
measured_target = "IDO1 (Homo sapiens)"
assay_value = 383

[[record]]
smiles_code = "CO[C@H](c1ccc(NC(=O)c2cccc(C#N)c2)nc1)c1nc2cc(C(F)(F)F)cnc2[nH]1"
measured_target = "IDO1 (Homo sapiens)"
assay_value = 263


What does the data say about its IC50? Entry: `O=C(Nc1ccc(C2(c3nc4cc(F)cc(F)c4[nH]3)CCC2)cn1)c1cccc(Cl)c1`
4.9

Another: `N#Cc1cccc(C(=O)Nc2ccc(C3(c4nc5cc(Cl)ccc5[nH]4)CCC3)cn2)c1`
6.58

Request: `N#Cc1cccc(C(=O)Nc2ccc([C@H](O)c3nc4cc(C(F)(F)F)cnc4[nH]3)cn2)c1`
3860

Similarly, `N#Cc1cccc(C(=O)Nc2ccc(C3(c4nc5cccc(C(=O)O)c5[nH]4)CCC3)cn2)c1` ?
10000

What do you have for `O=C(Nc1ccc(C2(c3nc4cc(F)c(F)cc4[nH]3)CCC2)cn1)c1cccc(Cl)c1` ?
7.77

Then `O=C(Nc1ccc(C2(c3nc4ccccc4n3CCO)CCC2)cn1)c1cccc(Cl)c1` ?
200
